Assay: Steady state brain ECF pharmacokinetics by intracerebral microdialysis
Conditions: male, Sprague-Dawley, rat, brain ECF (striatal microdialysate), ip, 4 mg/kg, AUC 0–12, brain ECF, male rats, steady state, 4 mg/kg i.p. daily for 5 days
Readout: AUC(0-t) (ng·h/mL)
Return type: number; implicit unit ng·h/mL.

The molecule listed as N#Cc1ccc(C(c2ccc(C#N)cc2)n2cncn2)cc1 has a reported AUC(0-t) of 4820

---

Experiment: Steady state brain ECF pharmacokinetics by intracerebral microdialysis
Settings: female, Sprague-Dawley, rat, brain ECF / unbound plasma, intraperitoneal, 4 mg/kg, Kpuu (Cmax brain ECF / plasma unbound), female rats, steady state, 11 days
Readout: Kp uu at 264 h
API note: the answer field is a bare number with no unit suffix.

The molecule listed as N#Cc1ccc(C(c2ccc(C#N)cc2)n2cncn2)cc1 has a reported Kp uu at 264 h of 1.2

FYI, the data here is from paper PMC8018653.
